assay: yeast display, Sf9 membrane polyspecificity reagent, FACS + sequencing; frameworks hold sequencing errors
PROPERTY: polyreactivity (PSR sort gate)

Some sequences with known polyreactivity (PSR sort gate) results, for comparison:
The sequence identified as QVQLVESGGGLVQAGGSLRLSCAASGRTFTINAMGWYRQAPGKERELVAAITSGGSTNYADSVKGRFTISRDNAKNTVYLQMNSLKPEDTAVYYCNAGYYSRRYYFSGRLDYWGQGTQVTVSS registered its polyreactivity (PSR sort gate) at low polyreactivity

Recorded result, QVQLVESGGGLVQAGGSLRLSSAATGSTSFQNAMGWYRQAPGKEREFVAAISGSGDRTNYADSVKGRFTISRDNAKNTVYLQMNSLIPEDTAVYYCAAVRGYPPTNYYYWGQGTQVTVSS , polyreactivity (PSR sort gate): high polyreactivity

polyreactivity (PSR sort gate) recorded for this sequence, QVQRVESGGGLVQARGSLRLSCAASGRIFTKYAMGWYRQAPGKVRELVAGITSRGGSTYYADSVKGRFTISRDIANNTGYLQMNSLKPEDTAVYYCNAYRVGRYDYWGQGTQVTVSS , is high polyreactivity

Entry QVQLQESGGCLVQAGGSLRLSCAASGPISRRSTMGWYSQAPGKERELVTAITRGTNTNYADSVKGRFTISRDNAKNTEYLQMNSLKTEDTAVYYCAAYGVLKPSRGDAVFHRYWGQGTQVTVSS , polyreactivity (PSR sort gate) reported as low polyreactivity

Recorded polyreactivity (PSR sort gate) (sequence QVQLVESGGGLVQAGGSLRLSCAASGRTFRHNAMGWYRQAPGKERELVATINRGGNTYYADSVKGRFTISRDNAKNTVYLQMNSLKPEDTAVYYCAARRSFLFDEGNYWGQGTQVTVSS ): low polyreactivity

Fill in polyreactivity (PSR sort gate) for each of the 4 sequences listed.
1. QVQLVESGGGLVQAGGSLRLSCAASGRIFGRYAMGWYRPAPGKERELVAAISRSGGSTYYADSVKGRFTISRDNAKNTVYLHMNSLKPEDTAVYYCAAERWTRRHYSGNDYWGQGTQVTVSS
2. QVQLVESGGGLVQAGASLRLSCAASGYIYPKYGMGWYIQAPGKERELVAAITGSGGSTYYADSVMGRITISRDNAKNTVYLHMNSLKPEDTAVYYCAKRSWIEYDYWGQGTQVTVSS
3. QVQRVESGGGLVQAGGSLRLSCAASGSIFFDGNAMGWYRQAPGQERELVAAISVSGGSTYYADSVKGRFTISRDNAKNTVYLQMNSLKPEDTAVYYCAKYPSKSYVPGDYWGQGTQVTVSS
4. QVHLVESGGGLFQAGGSLRISCSASGSIFARNAMGWYRQAPGKERELVAAISRSGGSTYYADSVKGRFTISRDNAMMTVSFQMNSLKPEDTAVYYCAAVRRRTVGYNYWGQGTQVTVSS

Ans.
["low polyreactivity", "low polyreactivity", "low polyreactivity", "high polyreactivity"]

Each of the following entries comes with a recorded value; kindly state polyreactivity (PSR sort gate) for each.
1. QVQLVESGGGLVQAGGSLRLSCAASGRIFGPYTMGWYRQAPGKERELVATISYSGSTTYYADSVKWRFTISRDNAKNTVYLQMNSLKPEDTAVYYCNAQYYVFITFDYWGQGTQGTVSS
2. QVQLVESGGGLVQAGGSLRLSCAASGITFTFNAMGWYRQAPGKERELVAAISSTTSTKYADSVKGRFTISRDNAKTTVYLQMNSLKPEDTAVYYCARTYWLRYYGYRDDEYDYWGQGTQVTVSS

Ans.
high polyreactivity
low polyreactivity
